# EXPERIMENT: chemical genetic growth profiling, strain panel (AID 1159580);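 further: tested at 20 µM; growth read once vehicle control cultures reached saturation at 30 °C; 1 = growth at the plate median or of vehicle wells; lower values mean less growth of the strain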
# MEASUREMENT_SETUP: S. cerevisiae deletion strains, growth OD, locus YLR262C, strain YPT6 (second series)
The campaign covered roughly 5,500 compounds. About 2,000 (36%) were called active. Roughly 18% stayed inconclusive and do not appear here. No stated cut-off is given here; in the data, active means normalized growth mostly below about 0.91 (no sharp cut-off); inconclusive means no clear call, values can overlap the other calls; inactive means mostly above about 0.92. This is one part of the list.
Labels: yes (1) for active, no (0) for inactive

COMPOUND	GROUP_LABEL
CN(N=O)C(=O)N[C@@H]1[C@@H](O)[C@H](O)[C@@H](CO)O[C@@H]1O	no (0)
COc1ccc(-c2cc(=O)c3cc(OC)ccc3o2)cc1	no (0)
CC(=O)Oc1cc(-c2coc3cc(OC(C)=O)c(OC(C)=O)c(OC(C)=O)c3c2=O)cc(OC(C)=O)c1OC(C)=O	no (0)
COc1ccc(-c2cc(=O)c3c(O)c(OC)c(OC)c(OC)c3o2)cc1	no (0)
ClC(Cl)=C(c1ccc(Cl)cc1)c1ccc(Cl)cc1	no (0)
CC(=O)O[C@H]1C[C@H](O[C@H]2[C@@H](O)C[C@H](O[C@H]3[C@@H](O)C[C@H](O[C@H]4CC[C@@]5(C)C(CCC6C5C[C@@H](O)[C@]5(C)[C@@H](C7=CC(=O)OC7)CC[C@]65O)C4)O[C@@H]3C)O[C@@H]2C)O[C@H](C)[C@H]1O[C@@H]1O[C@H](CO)[C@@H](O)[C@H](O)[C@H]1O (stereo not given in full)	no (0)
CC(=O)O[C@@H]1CC2C(C)(C)CCC(=O)[C@]2(C)C2CC[C@@]3(C)[C@H](c4ccoc4)OC(=O)C4OC43[C@@]21C (stereo not given in full)	no (0)
C=CCCCCCCCCCCCC(O)CC(O)CO (stereo not given)	no (0)
O=c1c(-c2cc(O)c(O)c(O)c2)coc2cc(O)c(O)c(O)c12	no (0)
COc1ccc(C(=O)/C=C/c2ccccc2)cc1	yes (1)
